System: HeLa cells
EXPERIMENT DESCRIPTION: cells
Format: cell-based
EXPERIMENTAL CONDITIONS: assay number 17; MI; read-out: Hela CellCycMod PI MI summarized IC50
QUANTITY MEASURED: pIC50
Numbers only, as −log10 of the molar value.

- O=C1C2CC=CCC2C(=O)N1SC(Cl)(Cl)Cl (stereo not shown): 5.21
- COc1cc([C@@H]2c3cc4c(cc3[C@H](O)[C@H]3COC(=O)[C@H]23)OCO4)cc(OC)c1OC: 7.95

Now, please, on to the next compound.
*Q* Look up pIC50: CCCCCCCCCCCCCCCC[n+]1ccccc1
*A* 6.29

###

Give measured pIC50 for each item. Keep answers brief.
System: Colo320
EXPERIMENT DESCRIPTION: cells
Type: cell-based
EXPERIMENTAL CONDITIONS: read-out: Basal_Viability ATP Colo 320 summarized IC50
One number for each entry, as −log10 of the molar value.

- CN(C)c1ccc(C(=C2C=CC(=[N+](C)C)C=C2)c2ccccc2)cc1: 6.79

I'm hoping you can list pIC50 for every compound here, please.
1. O=C1C(I)=CC(=C(c2cc(I)c(O)c(I)c2)c2ccccc2C(=O)O)C=C1I
2. Oc1ccc(Cl)cc1Cc1cc(Cl)ccc1O

*A*
6.51
5.92

*Q* Look up pIC50: O=C(Nc1ccc([N+](=O)[O-])cc1Cl)c1cc(Cl)ccc1O
*A* 8.08

###

ASSAYED TARGET: hJAK2 (Homo sapiens, UniProt O60674)
Construct: purchased Cerep (LANCE kinase assay platform, contract assay)
Sequence (O60674 whole entry): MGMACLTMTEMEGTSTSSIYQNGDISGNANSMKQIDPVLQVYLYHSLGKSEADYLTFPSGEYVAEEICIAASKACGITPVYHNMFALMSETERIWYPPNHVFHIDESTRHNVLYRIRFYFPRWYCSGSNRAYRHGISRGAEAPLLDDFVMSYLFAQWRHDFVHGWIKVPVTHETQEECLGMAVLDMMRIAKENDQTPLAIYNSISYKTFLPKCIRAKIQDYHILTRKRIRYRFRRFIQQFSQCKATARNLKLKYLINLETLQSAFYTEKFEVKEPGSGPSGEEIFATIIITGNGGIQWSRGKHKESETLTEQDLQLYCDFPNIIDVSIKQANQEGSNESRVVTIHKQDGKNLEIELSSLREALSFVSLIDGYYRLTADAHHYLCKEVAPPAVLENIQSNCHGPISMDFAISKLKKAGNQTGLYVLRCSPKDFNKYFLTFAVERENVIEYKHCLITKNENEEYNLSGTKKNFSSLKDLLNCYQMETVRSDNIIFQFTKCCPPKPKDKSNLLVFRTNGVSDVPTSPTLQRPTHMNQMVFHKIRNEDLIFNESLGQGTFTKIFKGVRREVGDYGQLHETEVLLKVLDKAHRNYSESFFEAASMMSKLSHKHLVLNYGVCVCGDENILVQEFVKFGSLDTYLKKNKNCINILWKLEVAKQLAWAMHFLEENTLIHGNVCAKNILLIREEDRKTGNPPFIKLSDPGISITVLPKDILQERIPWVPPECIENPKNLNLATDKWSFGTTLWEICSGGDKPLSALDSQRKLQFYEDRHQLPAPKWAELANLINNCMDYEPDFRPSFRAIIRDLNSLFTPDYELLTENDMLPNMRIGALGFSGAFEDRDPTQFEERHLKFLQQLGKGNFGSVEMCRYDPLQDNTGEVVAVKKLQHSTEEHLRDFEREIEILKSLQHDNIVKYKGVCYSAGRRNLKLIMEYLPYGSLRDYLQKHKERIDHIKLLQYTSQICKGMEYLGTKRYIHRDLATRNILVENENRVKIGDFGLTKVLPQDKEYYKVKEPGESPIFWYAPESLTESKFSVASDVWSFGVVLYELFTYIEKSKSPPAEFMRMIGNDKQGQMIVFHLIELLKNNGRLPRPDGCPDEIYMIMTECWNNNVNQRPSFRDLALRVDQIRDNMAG
EXPERIMENT DESCRIPTION: Cerep LANCE kinase assay hJAK2 (S1 assay 33)
Format: biochemical
EXPERIMENTAL CONDITIONS: assay number 33
QUANTITY MEASURED: hJAK2 LANCE IC50/EC50

I'm hoping you can list hJAK2 LANCE IC50/EC50 for every compound here, please.
1. CSc1ccc2c(c1)C(N1CCN(C)CC1)Cc1ccccc1S2 (centres unmarked) [NCGC00024665-10]
2. Cc1cc2c(C(C)C)c(O)c(O)c(C=O)c2c(O)c1-c1c(C)cc2c(C(C)C)c(O)c(O)c(C=O)c2c1O [NCGC00016423-15]
3. COc1c(C)c2c(c(O)c1C/C=C(\C)CCC(=O)OCCN1CCOCC1)C(=O)OC2 [NCGC00159459-04]
4. COc1ccc(-c2ccc3cc(C(=O)O)ccc3c2)cc1C12CC3CC(CC(C3)C1)C2 [NCGC00164617-04]

*A*
["> 20 µM", "> 20 µM", "> 20 µM", "5.57 µM"]

###

Tested on: HCT116 cells treated with a GSK3β inhibitor
EXPERIMENT DESCRIPTION: cells
Assay type: cell-based
EXPERIMENTAL CONDITIONS: GSK3b inh pretreated
Give measured IC50/EC50, GSK3b inh pretreated_Viability ATP HCT116 (assay number 26) for each item. Keep answers brief.
Numbers only, in µM.

As a guide, the following entries are already answered.
* O=C1NCCN1CCN1CCC(c2cn(-c3ccc(F)cc3)c3ccc(Cl)cc23)CC1 | 3.5177
* Nc1ccc(C(=O)Nc2ccccc2N)cc1 | 12.8536
* N/C(=N\N=C\c1ccc(Cl)cc1)N/N=C/c1ccc(Cl)cc1 | 0.3442

Now, please, on to the next molecule.
*Q* Look up IC50/EC50, GSK3b inh pretreated_Viability ATP HCT116 (assay number 26): COC(=O)Nc1nc2ccc([S+]([O-])c3ccccc3)cc2[nH]1 (centres unmarked)
*A* 0.001

###

Tested on: HCT116 cells treated with a GSK3β inhibitor
EXPERIMENT DESCRIPTION: cells
Type: cell-based
EXPERIMENTAL CONDITIONS: assay number 26; GSK3b inhibitor pretreated
Give measured GSK3b inh pretreated_Viability ATP HCT116 IC50/EC50 for each item. Keep answers brief.
Give bare numbers, in µM.

• Cc1nc(N)nc(N)c1-c1ccc(Cl)c(Cl)c1 = 0.05888
• O=C1c2c(O)ccc(O)c2C(=O)c2c(NCCNCCO)ccc(NCCNCCO)c21 = 0.001
• Clc1ccc(C(Cn2ccnc2)OCc2c(Cl)cccc2Cl)c(Cl)c1 (centres unmarked) = 1.3984
• Cl.Oc1ccc([C@H]2CNCc3c2ccc(O)c3O)cc1O = 0.1876

Now, please, on to the next compound.
*Q* Look up GSK3b inh pretreated_Viability ATP HCT116 IC50/EC50: O=C(CCl)c1ccc(Cl)cc1Cl
*A* 1.098

###

Give measured hp70S6K1 LANCE IC50/EC50 for each item. Keep answers brief.
ASSAYED TARGET: hp70S6K1 (RPS6KB1) (Homo sapiens)
Construct: purchased Cerep (LANCE kinase assay platform, contract assay)
Sequence (P23443 whole entry): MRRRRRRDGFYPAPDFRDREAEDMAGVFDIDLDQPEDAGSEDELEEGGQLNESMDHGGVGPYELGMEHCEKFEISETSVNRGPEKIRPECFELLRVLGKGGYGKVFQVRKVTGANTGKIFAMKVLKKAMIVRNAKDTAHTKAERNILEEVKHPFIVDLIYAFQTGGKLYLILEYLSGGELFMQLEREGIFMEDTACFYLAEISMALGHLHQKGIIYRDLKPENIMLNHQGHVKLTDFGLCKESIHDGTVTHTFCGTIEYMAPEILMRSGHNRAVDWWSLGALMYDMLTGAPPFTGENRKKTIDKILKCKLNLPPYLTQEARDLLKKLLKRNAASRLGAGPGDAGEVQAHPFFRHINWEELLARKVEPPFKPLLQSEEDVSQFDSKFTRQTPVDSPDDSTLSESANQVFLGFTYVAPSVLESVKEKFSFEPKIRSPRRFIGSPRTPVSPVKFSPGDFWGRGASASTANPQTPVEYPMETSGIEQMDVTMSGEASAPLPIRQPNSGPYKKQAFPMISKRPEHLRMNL
EXPERIMENT DESCRIPTION: Cerep LANCE kinase assay hp70S6K1 (S1 assay 31)
Format: biochemical
EXPERIMENTAL CONDITIONS: assay number 31

I'm hoping you can list hp70S6K1 LANCE IC50/EC50 for every compound here, please.
1. CSc1ccc2c(c1)C(N1CCN(C)CC1)Cc1ccccc1S2 (stereo not drawn)
2. COc1cccc2c1C(=O)c1c(O)c3c(c(O)c1C2=O)C[C@@](O)(C(C)=O)C[C@@H]3O[C@H]1C[C@H](N)[C@H](O)[C@H](C)O1
3. COc1ccc(-c2ccc3cc(C(=O)O)ccc3c2)cc1C12CC3CC(CC(C3)C1)C2
4. CC(C)(C)C(=O)OCOP(=O)(COCCn1cnc2c(N)ncnc21)OCOC(=O)C(C)(C)C
5. CCCOc1ccc2nc(NC(=O)OC)[nH]c2c1
6. Cc1ccc2nc(N)[nH]c(=O)c2c1Sc1ccncc1.Cl.Cl
7. Cc1ccccc1C(=O)Nc1ccc(C(=O)N2CCCC(N(C)C)c3ccccc32)cc1 (stereo not drawn)

*A*
1: > 20 µM; 2: > 20 µM; 3: > 20 µM; 4: > 20 µM; 5: > 20 µM; 6: 17.8 µM; 7: > 20 µM

I'm hoping you can list hp70S6K1 LANCE IC50/EC50 for every compound here, please.
1. CC[C@@]1(O)C(=O)OCc2c1cc1n(c2=O)Cc2c-1nc1ccccc1c2/C=N/OC(C)(C)C
2. C[C@@]12C(=O)OC(=O)[C@]1(C)C1CCC2O1

*A*
1: > 20 µM; 2: > 20 µM

###

Give measured IC50 for each item. Keep answers brief.
ASSAYED TARGET: hFLT3 (Homo sapiens, UniProt P36888)
Construct: purchased Cerep (LANCE kinase assay platform, contract assay)
Sequence (P36888 27-993): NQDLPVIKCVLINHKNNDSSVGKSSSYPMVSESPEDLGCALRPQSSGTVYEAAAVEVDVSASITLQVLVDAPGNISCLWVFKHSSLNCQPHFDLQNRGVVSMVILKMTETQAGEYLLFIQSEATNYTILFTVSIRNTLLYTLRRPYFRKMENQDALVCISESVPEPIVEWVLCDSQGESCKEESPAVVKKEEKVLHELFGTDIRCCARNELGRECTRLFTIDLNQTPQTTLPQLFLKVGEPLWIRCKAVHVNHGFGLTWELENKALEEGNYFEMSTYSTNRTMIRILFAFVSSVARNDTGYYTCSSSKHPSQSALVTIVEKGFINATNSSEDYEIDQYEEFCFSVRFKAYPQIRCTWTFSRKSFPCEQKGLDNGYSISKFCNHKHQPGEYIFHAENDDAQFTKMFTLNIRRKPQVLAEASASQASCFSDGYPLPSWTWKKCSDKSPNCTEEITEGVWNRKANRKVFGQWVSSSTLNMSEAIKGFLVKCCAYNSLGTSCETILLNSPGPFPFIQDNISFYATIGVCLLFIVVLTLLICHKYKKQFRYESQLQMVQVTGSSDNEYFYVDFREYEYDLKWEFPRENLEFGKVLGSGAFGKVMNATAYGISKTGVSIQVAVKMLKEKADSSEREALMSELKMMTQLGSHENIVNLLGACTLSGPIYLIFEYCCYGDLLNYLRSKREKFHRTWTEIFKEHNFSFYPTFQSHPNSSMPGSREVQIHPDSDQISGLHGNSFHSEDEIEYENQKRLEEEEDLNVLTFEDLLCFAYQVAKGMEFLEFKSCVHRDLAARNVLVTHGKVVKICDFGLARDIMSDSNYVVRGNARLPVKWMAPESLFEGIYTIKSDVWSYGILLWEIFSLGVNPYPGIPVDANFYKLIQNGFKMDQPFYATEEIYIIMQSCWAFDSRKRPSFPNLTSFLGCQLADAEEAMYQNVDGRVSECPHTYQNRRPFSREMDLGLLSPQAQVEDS
EXPERIMENT DESCRIPTION: Cerep LANCE kinase assay hFLT3 (S1 assay 35)
Type: biochemical
EXPERIMENTAL CONDITIONS: read-out: hFLT3 LANCE summarized IC50

- Nc1nc(=S)c2[nH]cnc2[nH]1: > 20 µM

*Q* Look up IC50: O=C(Nc1ccc([N+](=O)[O-])cc1Cl)c1cc(Cl)ccc1O
*A* > 20 µM

###

System: endothelial tube formation in co-cultures of ECFCs and ADSCs treated with VEGF
EXPERIMENT DESCRIPTION: cells
Assay type: cell-based, human
EXPERIMENTAL CONDITIONS: S2 Table; module primary assay; 20 = no response at highest concentration, 20.1 = inactive in single concentration testing; read-out: Anti-Angiogenesis
pIC50: −log10 of the molar value.
QUANTITY MEASURED: pIC50

*Q* Look up pIC50: N=C(N)NN=C(/C=C/c1ccc([N+](=O)[O-])o1)/C=C/c1ccc([N+](=O)[O-])o1
*A* < 5.00

###

System: HT-29
EXPERIMENT DESCRIPTION: cells
Format: cell-based
EXPERIMENTAL CONDITIONS: basal; read-out: Basal_Viability ATP HT-29
QUANTITY MEASURED: IC50 (µM)
Give bare numbers, in µM.

*Q* HT-29 / IC50 / O=C(c1cc(O)c(O)c(O)c1)c1ccc(O)c(O)c1O [Hexahydro-2,3,4,3',4',5'-benzophenone] : value?
*A* 9.45

###

Test system: HeLa cells
EXPERIMENT DESCRIPTION: cells
Type: cell-based
EXPERIMENTAL CONDITIONS: read-out: Hela CellCycMod PI S Phase summarized IC50
QUANTITY MEASURED: IC50

*Q* Look up IC50: O=C1C(I)=CC(=C(c2cc(I)c(O)c(I)c2)c2ccccc2C(=O)O)C=C1I
*A* > 10 µM

###

ASSAYED TARGET: hKDR (Homo sapiens)
Construct: purchased Cerep (LANCE kinase assay platform, contract assay)
Sequence (P35968 20-1356): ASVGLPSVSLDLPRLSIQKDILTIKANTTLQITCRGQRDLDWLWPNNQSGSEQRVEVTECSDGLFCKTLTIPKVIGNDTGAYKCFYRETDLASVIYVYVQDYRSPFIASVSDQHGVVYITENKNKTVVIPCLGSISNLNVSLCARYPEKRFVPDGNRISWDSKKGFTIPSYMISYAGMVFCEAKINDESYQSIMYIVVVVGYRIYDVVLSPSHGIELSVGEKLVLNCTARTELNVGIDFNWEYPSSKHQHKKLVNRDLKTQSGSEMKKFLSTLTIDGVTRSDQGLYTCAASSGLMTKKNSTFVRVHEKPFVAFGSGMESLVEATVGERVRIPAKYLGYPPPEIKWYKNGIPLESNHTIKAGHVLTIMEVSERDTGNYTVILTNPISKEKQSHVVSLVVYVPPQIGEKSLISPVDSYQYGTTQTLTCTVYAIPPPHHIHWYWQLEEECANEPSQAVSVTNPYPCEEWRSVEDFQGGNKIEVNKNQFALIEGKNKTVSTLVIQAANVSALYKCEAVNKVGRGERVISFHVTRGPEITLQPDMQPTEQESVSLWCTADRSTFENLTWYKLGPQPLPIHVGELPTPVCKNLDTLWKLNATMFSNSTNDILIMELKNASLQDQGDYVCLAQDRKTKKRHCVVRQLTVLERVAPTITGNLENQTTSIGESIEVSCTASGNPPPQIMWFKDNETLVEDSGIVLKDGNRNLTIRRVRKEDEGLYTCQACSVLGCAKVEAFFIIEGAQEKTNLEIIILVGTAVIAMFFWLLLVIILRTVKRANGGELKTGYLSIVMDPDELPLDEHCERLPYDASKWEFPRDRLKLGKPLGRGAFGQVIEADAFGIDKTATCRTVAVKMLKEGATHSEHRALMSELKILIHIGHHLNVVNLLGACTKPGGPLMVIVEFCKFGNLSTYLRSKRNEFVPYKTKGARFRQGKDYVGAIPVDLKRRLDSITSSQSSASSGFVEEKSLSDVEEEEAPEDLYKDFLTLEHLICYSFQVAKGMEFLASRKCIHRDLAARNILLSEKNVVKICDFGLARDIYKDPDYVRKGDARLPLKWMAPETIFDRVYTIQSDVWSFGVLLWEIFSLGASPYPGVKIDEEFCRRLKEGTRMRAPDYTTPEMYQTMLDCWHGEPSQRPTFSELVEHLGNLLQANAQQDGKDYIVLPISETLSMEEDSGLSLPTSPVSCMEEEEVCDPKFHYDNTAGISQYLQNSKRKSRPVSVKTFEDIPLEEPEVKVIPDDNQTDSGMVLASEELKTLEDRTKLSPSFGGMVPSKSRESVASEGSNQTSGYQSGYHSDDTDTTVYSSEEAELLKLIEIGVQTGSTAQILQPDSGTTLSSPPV
EXPERIMENT DESCRIPTION: Cerep LANCE kinase assay hKDR (S1 assay 32)
Assay type: biochemical
pIC50: −log10 of the molar value.
QUANTITY MEASURED: pIC50

• COc1cc2c(c(OC)c1OC)-c1ccc(OC)c(=O)cc1[C@@H](NC(C)=O)CC2 [colchicine] = < 4.70
• O=C(Nc1ccc([N+](=O)[O-])cc1Cl)c1cc(Cl)ccc1O [Niclosamide] = < 4.70
• Cn1cnc([N+](=O)[O-])c1Sc1ncnc2nc[nH]c12 [Azathioprine] = < 4.70

I'm hoping you can list pIC50 for every compound here, please.
1. O=C(CCCCCCC(=O)Nc1ccccc1)NO [vorinostat]
2. COC(=O)Nc1nc2ccc(C(=O)c3ccccc3)cc2[nH]1 [Mebendazole]

*A*
< 4.70
5.84
